Data provenance is patent US20140323504A1.

- TEST_SYSTEM: BTK (Homo sapiens, UniProt Q06187)
- Construct: purchased ProQinase GmbH, Freiburg, Germany
- Sequence (Q06187 whole entry): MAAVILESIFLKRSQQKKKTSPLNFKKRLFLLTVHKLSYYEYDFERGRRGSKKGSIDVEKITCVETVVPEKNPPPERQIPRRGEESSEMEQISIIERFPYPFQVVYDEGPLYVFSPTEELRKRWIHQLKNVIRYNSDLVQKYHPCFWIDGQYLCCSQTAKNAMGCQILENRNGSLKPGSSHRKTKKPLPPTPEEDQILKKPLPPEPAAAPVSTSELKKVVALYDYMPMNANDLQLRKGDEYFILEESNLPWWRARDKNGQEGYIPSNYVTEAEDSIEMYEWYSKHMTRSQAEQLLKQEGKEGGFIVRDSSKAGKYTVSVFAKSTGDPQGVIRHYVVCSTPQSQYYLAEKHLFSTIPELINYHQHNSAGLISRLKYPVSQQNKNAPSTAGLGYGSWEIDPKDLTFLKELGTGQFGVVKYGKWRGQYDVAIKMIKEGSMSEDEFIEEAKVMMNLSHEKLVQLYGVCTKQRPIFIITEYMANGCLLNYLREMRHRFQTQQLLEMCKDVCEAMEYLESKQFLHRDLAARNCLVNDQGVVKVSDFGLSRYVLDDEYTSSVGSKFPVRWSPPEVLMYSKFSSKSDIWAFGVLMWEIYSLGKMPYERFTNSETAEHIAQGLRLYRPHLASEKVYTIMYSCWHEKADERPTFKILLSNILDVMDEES
- EXPERIMENTAL_PROTOCOL: Radiometric protein kinase assay (33PanQinase, ProQinase), BTK
- Type: biochemical
- CONDITION_DETAILS: read-out: BTK enzyme assay IC50
ASSAY_ENDPOINT: IC50 (nM)

Some solved entries appear below for comparison.
COMPOUND	UNIT_OF_MEASUREMENT	IC50
C=CS(=O)(=O)Nc1cccc(Cn2ncc3cnc(Nc4cnn(C)c4)nc32)c1	nM	20
C=CC(=O)Nc1cccc(Cn2ncc3cnc(Nc4cnn(C)c4)nc32)c1	nM	20
C#CC(=O)Nc1cccc(Cn2ncc3cnc(Nc4cnn(C)c4)nc32)c1	nM	1

[I] CC(=O)Nc1cccc(Cn2ncc3cnc(Nc4cnn(C)c4)nc32)c1 [compound 2, reference compound]
[II] C=CC(=O)Nc1cc(Cn2ncc3cnc(Nc4cnn(C)c4)nc32)ccc1F
Problem: Field: lower recorded IC50 (choose I or II ) Returns: label corresponding to the selected item.
Solution: II
(II: 323 nM, I: 2000 nM)

---

- TEST_SYSTEM: JAK3 (Homo sapiens, UniProt P52333)
- Sequence (P52333 whole entry): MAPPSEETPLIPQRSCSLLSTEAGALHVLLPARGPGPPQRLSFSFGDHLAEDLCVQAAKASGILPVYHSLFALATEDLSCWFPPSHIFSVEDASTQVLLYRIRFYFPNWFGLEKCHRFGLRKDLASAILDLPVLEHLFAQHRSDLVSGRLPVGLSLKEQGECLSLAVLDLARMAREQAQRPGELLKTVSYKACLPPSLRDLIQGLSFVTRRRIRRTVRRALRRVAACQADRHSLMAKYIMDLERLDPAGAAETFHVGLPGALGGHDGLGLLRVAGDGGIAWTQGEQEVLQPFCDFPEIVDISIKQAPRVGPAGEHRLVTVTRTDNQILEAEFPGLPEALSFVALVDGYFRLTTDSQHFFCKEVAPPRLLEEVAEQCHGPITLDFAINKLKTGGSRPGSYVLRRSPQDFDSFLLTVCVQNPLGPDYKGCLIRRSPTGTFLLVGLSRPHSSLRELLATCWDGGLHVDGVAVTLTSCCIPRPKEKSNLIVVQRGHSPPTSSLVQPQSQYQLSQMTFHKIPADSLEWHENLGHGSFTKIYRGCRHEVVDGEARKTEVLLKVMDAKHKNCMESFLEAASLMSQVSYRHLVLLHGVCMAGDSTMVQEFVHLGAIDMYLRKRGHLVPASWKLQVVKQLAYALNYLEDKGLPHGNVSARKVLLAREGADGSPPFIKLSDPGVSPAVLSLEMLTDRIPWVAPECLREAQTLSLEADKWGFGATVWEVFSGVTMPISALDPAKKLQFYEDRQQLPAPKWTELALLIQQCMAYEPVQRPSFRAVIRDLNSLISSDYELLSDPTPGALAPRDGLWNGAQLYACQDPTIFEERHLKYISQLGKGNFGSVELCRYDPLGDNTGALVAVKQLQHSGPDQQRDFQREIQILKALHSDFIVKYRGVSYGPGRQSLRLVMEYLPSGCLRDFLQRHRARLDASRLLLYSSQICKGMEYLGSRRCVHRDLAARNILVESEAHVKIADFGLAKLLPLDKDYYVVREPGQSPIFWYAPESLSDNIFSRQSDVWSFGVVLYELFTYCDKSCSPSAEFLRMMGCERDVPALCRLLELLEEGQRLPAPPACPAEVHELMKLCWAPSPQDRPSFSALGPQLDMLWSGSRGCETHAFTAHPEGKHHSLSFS
- EXPERIMENTAL_PROTOCOL: Radiometric protein kinase assay (33PanQinase, ProQinase), JAK3
- Type: biochemical
- Design: endogenous in cells; host or cells: mixed Molt4/Ramos cell lysate (1:2)
- CONDITION_DETAILS: read-out: JAK3 enzyme assay IC50
pIC50: −log10 of the molar value.
ASSAY_ENDPOINT: pIC50

MOLECULE	TEST_SYSTEM	pIC50
C=CC(=O)Nc1cccc(Cn2ncc3cnc(Nc4cnn(C)c4)nc32)c1	JAK3 (Homo sapiens, UniProt P52333)	8.52

[1] C#CC(=O)Nc1cccc(Cn2ncc3cnc(Nc4cnn(C)c4)nc32)c1
[2] CC(=O)Nc1cccc(Cn2ncc3cnc(Nc4cnn(C)c4)nc32)c1 [compound 2, reference compound]
[3] C=CS(=O)(=O)Nc1cccc(Cn2ncc3cnc(Nc4cnn(C)c4)nc32)c1
Problem: Put the items in order so that reported pIC50 rises from first to last. Could you list the labels in the order requested?
Solution: 2, 3, 1
(2: 6.54, 3: 8.15, 1: 8.40)

---

- TEST_SYSTEM: JAK3 (Homo sapiens)
- EXPERIMENTAL_PROTOCOL: Kinobeads assay with antibody detection, JAK3
- Type: binding
- Design: endogenous in cells; host or cells: mixed Molt4/Ramos cell lysate (1:2)
- CONDITION_DETAILS: mixed Molt4/Ramos lysate, read-out: JAK3 inhibition value (IC50)
pIC50: −log10 of the molar value.
ASSAY_ENDPOINT: pIC50

COMPOUND	pIC50
C=CC(=O)Nc1cccc(Cn2ncc3cnc(Nc4cnn(C)c4)nc32)c1 [Example 1]	8.30

[A] CC(=O)Nc1cccc(Cn2ncc3cnc(Nc4cnn(C)c4)nc32)c1 [compound 2, reference compound]
[B] C=CC(=O)Nc1cccc(Cn2ncc3cnc(Nc4cnn(C)c4)cc32)c1 [Example 10]
[C] C=CC(=O)Nc1cc(Cn2ncc3cnc(Nc4cnn(C)c4)nc32)ccc1F [Example 2]
[D] C=CC(=O)Nc1cccc(Cn2ccc3cnc(Nc4cnn(C)c4)nc32)c1 [Example 9]
Problem: Put the items in order so that reported pIC50 rises from first to last. Could you list the labels in the order requested?
Solution: A, C, D, B
(A: 6.69, C: 7.80, D: 8.52, B: 9.00)

---

- TEST_SYSTEM: BLK (Homo sapiens, UniProt P51451)
- Construct: endogenous in cells; host or cells: 1:1 mix of Jurkat and Ramos cell lysates
- EXPERIMENTAL_PROTOCOL: Radiometric protein kinase assay (33PanQinase, ProQinase), BLK
- Type: biochemical
- CONDITION_DETAILS: ATP at apparent Km; read-out: BLK enzyme assay IC50
ASSAY_ENDPOINT: pIC50
Just the number, please; pIC50 means minus log10 of the concentration in mol/L.

Problem: Retrieve pIC50 measured for C=CC(=O)Nc1cc(Cn2ncc3cnc(Nc4cnn(C)c4)nc32)ccc1F and print it.
Solution: 5.70

---

- TEST_SYSTEM: ITK (Homo sapiens, UniProt Q08881)
- Construct: purchased ProQinase GmbH, Freiburg, Germany
- Sequence (Q08881 whole entry): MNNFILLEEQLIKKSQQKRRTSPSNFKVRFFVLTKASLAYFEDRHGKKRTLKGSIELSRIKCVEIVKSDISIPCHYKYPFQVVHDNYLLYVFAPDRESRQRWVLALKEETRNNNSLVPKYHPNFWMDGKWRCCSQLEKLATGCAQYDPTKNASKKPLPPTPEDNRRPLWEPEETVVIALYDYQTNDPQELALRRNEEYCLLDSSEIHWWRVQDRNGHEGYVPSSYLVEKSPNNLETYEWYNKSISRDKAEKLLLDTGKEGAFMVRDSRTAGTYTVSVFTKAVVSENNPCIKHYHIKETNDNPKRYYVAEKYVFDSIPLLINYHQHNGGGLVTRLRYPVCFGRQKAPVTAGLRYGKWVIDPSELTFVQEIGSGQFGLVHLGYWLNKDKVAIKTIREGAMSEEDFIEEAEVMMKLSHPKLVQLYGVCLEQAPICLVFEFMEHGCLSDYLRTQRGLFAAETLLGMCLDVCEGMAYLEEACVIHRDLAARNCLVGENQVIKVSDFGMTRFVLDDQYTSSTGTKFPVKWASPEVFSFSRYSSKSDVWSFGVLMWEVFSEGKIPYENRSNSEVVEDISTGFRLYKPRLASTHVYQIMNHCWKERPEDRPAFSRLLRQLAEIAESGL
- EXPERIMENTAL_PROTOCOL: Radiometric protein kinase assay (33PanQinase, ProQinase), ITK
- Format: biochemical
- CONDITION_DETAILS: ATP at apparent Km (1.0 μM); read-out: ITK enzyme assay IC50
- Protocol: A radiometric protein kinase assay (^33PanQinase® Activity Assay; ProQinase GmbH, Freiburg, Germany) was used for measuring the kinase activity of the protein kinases BLK, BTK, ITK and JAK3. All kinase assays were performed in 96-well FlashPlates™ from PerkinElmer (Boston, Mass., USA) in a 50 μl reaction volume. […] The reaction cocktails were incubated at 30° C. for 60 minutes. […] Incorporation of ^33Pi was determined with a microplate scintillation counter (Microbeta, Wallac). […]
pIC50: −log10 of the molar value.
ASSAY_ENDPOINT: pIC50

SMILES_REPRESENTATION	pIC50
C#CC(=O)Nc1cccc(Cn2ncc3cnc(Nc4cnn(C)c4)nc32)c1	8.52

[1] C=CC(=O)Nc1cccc(Cn2ncc3cnc(Nc4cnn(C)c4)nc32)c1
[2] C=CS(=O)(=O)Nc1cccc(Cn2ncc3cnc(Nc4cnn(C)c4)nc32)c1
Problem: Name the one with the greater pIC50 value, either 1 or 2 as given. Returns: label corresponding to the selected item.
Solution: 2
(2: 7.10, 1: 6.64)

---

- TEST_SYSTEM: JAK3 (Homo sapiens, UniProt P52333)
- EXPERIMENTAL_PROTOCOL: Kinobeads assay with antibody detection, JAK3
- Assay type: binding
- Design: endogenous in cells; host or cells: mixed Molt4/Ramos cell lysate (1:2)
- CONDITION_DETAILS: mixed Molt4/Ramos lysate, read-out: JAK3 inhibition value (IC50)
pIC50: −log10 of the molar value.
ASSAY_ENDPOINT: pIC50

[P] C=CS(=O)(=O)Nc1cccc(Cn2ncc3cnc(Nc4cnn(C)c4)nc32)c1 [Example 4]
[Q] C=C(C)C(=O)Nc1cccc(Cn2ncc3cnc(Nc4cnn(C)c4)nc32)c1 [Example 5]
Problem: Name the one with the greater pIC50 value, either P or Q as given. Returns: label corresponding to the selected item.
Solution: P

[A] C=CS(=O)(=O)Nc1cccc(Cn2ccc3cnc(Nc4cnn(C)c4)nc32)c1 [Example 7]
[B] CC(C)=CC(=O)Nc1cccc(Cn2ncc3cnc(Nc4cnn(C)c4)nc32)c1 [Example 6]
Problem: Name the one with the greater pIC50 value, either A or B as given. Returns: label corresponding to the selected item.
Solution: A

[1] C#CC(=O)Nc1cccc(Cn2ncc3cnc(Nc4cnn(C)c4)nc32)c1 [Example 3]
[2] C=CC(=O)Nc1cccc(Cn2ncc3cnc(Nc4ccn(C)n4)cc32)c1 [Example 8]
Problem: Field: lower recorded pIC50 (choose 1 or 2 ) Returns: label corresponding to the selected item.
Solution: 1

---

- TEST_SYSTEM: Tyk2 (Homo sapiens)
- Construct: endogenous in cells
- Sequence (P29597 whole entry): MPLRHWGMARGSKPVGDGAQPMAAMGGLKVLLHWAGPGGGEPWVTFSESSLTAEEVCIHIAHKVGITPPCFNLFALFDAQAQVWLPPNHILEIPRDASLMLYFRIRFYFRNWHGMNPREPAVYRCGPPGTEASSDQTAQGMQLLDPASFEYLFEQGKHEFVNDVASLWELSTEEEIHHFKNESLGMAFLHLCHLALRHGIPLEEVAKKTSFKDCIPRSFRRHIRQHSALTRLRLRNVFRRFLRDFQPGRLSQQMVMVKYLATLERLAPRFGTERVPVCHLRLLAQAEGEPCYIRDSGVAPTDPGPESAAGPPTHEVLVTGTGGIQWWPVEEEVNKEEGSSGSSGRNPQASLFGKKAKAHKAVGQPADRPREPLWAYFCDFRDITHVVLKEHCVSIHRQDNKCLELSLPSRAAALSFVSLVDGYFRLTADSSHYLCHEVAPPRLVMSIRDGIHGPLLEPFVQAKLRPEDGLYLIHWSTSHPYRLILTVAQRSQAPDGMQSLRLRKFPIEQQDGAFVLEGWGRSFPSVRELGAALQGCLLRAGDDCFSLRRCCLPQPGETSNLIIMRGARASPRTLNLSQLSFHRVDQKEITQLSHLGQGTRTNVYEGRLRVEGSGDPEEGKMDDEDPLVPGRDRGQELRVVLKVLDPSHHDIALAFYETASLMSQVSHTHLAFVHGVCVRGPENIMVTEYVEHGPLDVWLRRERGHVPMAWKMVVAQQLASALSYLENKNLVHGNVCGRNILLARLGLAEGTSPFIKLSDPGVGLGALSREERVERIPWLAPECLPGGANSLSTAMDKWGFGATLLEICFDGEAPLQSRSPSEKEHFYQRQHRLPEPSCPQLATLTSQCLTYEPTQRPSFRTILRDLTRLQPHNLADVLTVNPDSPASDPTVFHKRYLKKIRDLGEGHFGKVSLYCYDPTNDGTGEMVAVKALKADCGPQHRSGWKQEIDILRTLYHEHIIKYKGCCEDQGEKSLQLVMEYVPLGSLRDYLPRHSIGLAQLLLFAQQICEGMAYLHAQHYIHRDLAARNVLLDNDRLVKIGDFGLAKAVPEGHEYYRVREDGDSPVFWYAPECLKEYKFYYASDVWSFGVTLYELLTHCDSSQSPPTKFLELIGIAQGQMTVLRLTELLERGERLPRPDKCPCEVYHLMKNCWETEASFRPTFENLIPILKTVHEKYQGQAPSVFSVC
- EXPERIMENTAL_PROTOCOL: Kinobeads assay with antibody detection, TYK2
- CONDITION_DETAILS: mixed Molt4/Ramos lysate, read-out: Tyk2 inhibition value (IC50)
ASSAY_ENDPOINT: IC50 (µM)

Some solved entries appear below for comparison.
SMILES_REPRESENTATION	UNIT_OF_MEASUREMENT	IC50
C=CS(=O)(=O)Nc1cccc(Cn2ccc3cnc(Nc4cnn(C)c4)nc32)c1	µM	0.901
C#CC(=O)Nc1cccc(Cn2ncc3cnc(Nc4cnn(C)c4)nc32)c1	µM	6.96
C=CS(=O)(=O)Nc1cccc(Cn2ncc3cnc(Nc4cnn(C)c4)nc32)c1	µM	6.13

[P] C=CC(=O)Nc1cccc(Cn2ccc3cnc(Nc4cnn(C)c4)nc32)c1
[Q] C=CC(=O)Nc1cccc(Cn2ncc3cnc(Nc4cnn(C)c4)cc32)c1
Problem: Name the one with the greater IC50 value, either P or Q as given. Returns: label corresponding to the selected item.
Solution: P

---

- TEST_SYSTEM: TEC (Homo sapiens)
- Construct: endogenous in cells
- EXPERIMENTAL_PROTOCOL: Kinobeads assay with quantitative mass spectrometry, TEC
- CONDITION_DETAILS: Jurkat/Ramos lysate, read-out: TEC inhibition value (IC50)
pIC50: −log10 of the molar value.
ASSAY_ENDPOINT: pIC50

[a] C=CC(=O)Nc1cc(Cn2ncc3cnc(Nc4cnn(C)c4)nc32)ccc1F
[b] C=CC(=O)Nc1cccc(Cn2ncc3cnc(Nc4cnn(C)c4)nc32)c1
Problem: Field: lower recorded pIC50 (choose a or b ) Returns: label corresponding to the selected item.
Solution: a

---

- TEST_SYSTEM: JAK1 (Homo sapiens, UniProt P23458)
- Construct: endogenous in cells
- Sequence (P23458 whole entry): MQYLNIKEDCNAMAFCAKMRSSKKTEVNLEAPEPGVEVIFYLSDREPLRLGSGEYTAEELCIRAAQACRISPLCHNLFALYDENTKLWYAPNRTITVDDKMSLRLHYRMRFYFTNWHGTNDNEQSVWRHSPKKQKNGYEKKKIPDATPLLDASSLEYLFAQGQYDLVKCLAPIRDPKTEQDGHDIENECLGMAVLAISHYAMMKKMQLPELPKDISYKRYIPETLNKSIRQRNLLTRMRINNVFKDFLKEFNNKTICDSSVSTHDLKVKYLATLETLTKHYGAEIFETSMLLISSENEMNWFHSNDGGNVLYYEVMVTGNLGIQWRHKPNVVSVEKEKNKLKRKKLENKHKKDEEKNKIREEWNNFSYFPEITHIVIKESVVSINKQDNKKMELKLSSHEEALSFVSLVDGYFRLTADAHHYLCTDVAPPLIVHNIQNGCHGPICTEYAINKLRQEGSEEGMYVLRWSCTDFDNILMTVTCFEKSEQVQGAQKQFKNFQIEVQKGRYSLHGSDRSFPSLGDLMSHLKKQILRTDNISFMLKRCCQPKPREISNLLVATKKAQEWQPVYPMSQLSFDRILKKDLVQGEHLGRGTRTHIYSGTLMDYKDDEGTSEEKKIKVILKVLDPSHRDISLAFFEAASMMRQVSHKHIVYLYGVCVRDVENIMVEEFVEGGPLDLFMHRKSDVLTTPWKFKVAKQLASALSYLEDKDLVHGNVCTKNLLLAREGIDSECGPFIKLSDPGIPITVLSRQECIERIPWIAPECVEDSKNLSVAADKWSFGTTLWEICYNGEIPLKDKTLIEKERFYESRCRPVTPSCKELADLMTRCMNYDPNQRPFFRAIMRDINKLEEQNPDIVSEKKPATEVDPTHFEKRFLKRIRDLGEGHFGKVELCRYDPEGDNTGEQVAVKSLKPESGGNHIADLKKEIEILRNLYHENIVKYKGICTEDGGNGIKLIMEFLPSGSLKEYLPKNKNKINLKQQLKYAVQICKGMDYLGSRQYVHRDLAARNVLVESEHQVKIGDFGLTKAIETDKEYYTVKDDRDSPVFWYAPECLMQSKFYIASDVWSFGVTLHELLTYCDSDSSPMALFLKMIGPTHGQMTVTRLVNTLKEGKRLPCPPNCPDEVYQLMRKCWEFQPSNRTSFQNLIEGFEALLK
- EXPERIMENTAL_PROTOCOL: Kinobeads assay with antibody detection, JAK1
- CONDITION_DETAILS: mixed Molt4/Ramos lysate, read-out: JAK1 inhibition value (IC50)
- Procedure: The compounds of the present invention as described in the previous examples were tested in a Kinobeads™ assay as described for ZAP-70 (WO-A 2007/137867). […] Bound proteins were then eluted and the presence of JAK1; JAK2, JAK3 and TYK2 was detected and quantified using specific antibodies in a dot blot procedure and the Odyssey infrared detection system. Dose response curves for individual kinases were generated and IC50 values calculated. […]
pIC50: −log10 of the molar value.
ASSAY_ENDPOINT: pIC50

MOLECULE	TEST_SYSTEM	ASSAY_ENDPOINT	DATA_VALUE
C=CC(=O)Nc1cc(Cn2ncc3cnc(Nc4cnn(C)c4)nc32)ccc1F	JAK1 (Homo sapiens, UniProt P23458)	pIC50	< 5.00
C=CC(=O)Nc1cccc(Cn2ncc3cnc(Nc4cnn(C)c4)cc32)c1	JAK1 (Homo sapiens, UniProt P23458)	pIC50	5.27
C#CC(=O)Nc1cccc(Cn2ncc3cnc(Nc4cnn(C)c4)nc32)c1	JAK1 (Homo sapiens, UniProt P23458)	pIC50	< 5.00
CC(C)=CC(=O)Nc1cccc(Cn2ncc3cnc(Nc4cnn(C)c4)nc32)c1	JAK1 (Homo sapiens, UniProt P23458)	pIC50	< 5.00
C=CS(=O)(=O)Nc1cccc(Cn2ncc3cnc(Nc4cnn(C)c4)nc32)c1	JAK1 (Homo sapiens, UniProt P23458)	pIC50	< 5.00

Problem: Retrieve pIC50 measured for C=CC(=O)Nc1cccc(Cn2ccc3cnc(Nc4cnn(C)c4)nc32)c1 and print it.
Solution: 5.03

Problem: Retrieve pIC50 measured for C=CC(=O)Nc1cccc(Cn2ncc3cnc(Nc4cnn(C)c4)nc32)c1 and print it.
Solution: < 5.00

Problem: Retrieve pIC50 measured for C=CC(=O)Nc1cccc(Cn2ncc3cnc(Nc4ccn(C)n4)cc32)c1 and print it.
Solution: < 5.00

Problem: Retrieve pIC50 measured for C=CS(=O)(=O)Nc1cccc(Cn2ccc3cnc(Nc4cnn(C)c4)nc32)c1 and print it.
Solution: 5.11

Problem: Retrieve pIC50 measured for C=C(C)C(=O)Nc1cccc(Cn2ncc3cnc(Nc4cnn(C)c4)nc32)c1 and print it.
Solution: < 5.00

Problem: Retrieve pIC50 measured for CC(=O)Nc1cccc(Cn2ncc3cnc(Nc4cnn(C)c4)nc32)c1 [compound 2, reference compound] and print it.
Solution: < 5.00
